Test system: ESR1 transcription in MVLN cells
Assay: MVLN reporter assay: repression of ESR1 transcription (luciferase signal)
Assay type: cell-based
Settings: Homo sapiens, MVLN, 24 h, luciferase signal after 24 h, read-out: MVLN reporter assay, IC50 [M] (arithmetic mean)
property-measured: IC50 (M)
Could you give me the number in M? Just the number is fine.

Fill in IC50 for record CC(C)Oc1ccc(Br)cc1S(=O)(=O)NC(=O)c1cc2c(F)cc(N3CCC3)cc2o1 [Example 170] 1.33e-07

Fill in IC50 for record Cc1cc2c(c(S(=O)(=O)NC(=O)c3cc4c(F)cc(N5CCC5)cc4o3)c1C)OC(C)(C)C2 [Example 204] 1.79e-07

Fill in IC50 for record CCOc1ccccc1S(=O)(=O)NC(=O)c1cc2c(F)cc(N3CCC3(C)C)cc2o1 [Example 219] 3.86e-06

Fill in IC50 for record CC(C)N(C)c1cc(F)c(S(=O)(=O)NC(=O)c2cc3c(F)cc(N4CC(F)C4)cc3o2)c(F)c1 [Example 164] 2.34e-06

Fill in IC50 for record COc1ccc(C2=CCOCC2)cc1S(=O)(=O)NC(=O)c1cc2c(F)cc(N3CCC3)cc2o1 [Example 196] 4.72e-08

Fill in IC50 for record COc1ccc(Cl)c(C)c1S(=O)(=O)NC(=O)c1cc2c(F)cc(N3CCC3)cc2o1 [Example 27] 3.54e-07

Fill in IC50 for record O=C(NS(=O)(=O)c1ccccc1S(=O)(=O)c1ccccc1)c1cc2c(F)cc(N3CCC3)cc2o1 [Example 45] 1.1e-06

Fill in IC50 for record CCOc1ccc(F)cc1S(=O)(=O)NC(=O)c1cc2c(F)cc(N3CCC3)cc2o1 [Example 210] 1.13e-07

====

Target: Recombinant human His-tagged Kat6a protein (amino acids 194-810) (Homo sapiens, UniProt Q92794)
Construct: Kat6a protein (amino acids 194-810); His
Sequence (Q92794 194-810): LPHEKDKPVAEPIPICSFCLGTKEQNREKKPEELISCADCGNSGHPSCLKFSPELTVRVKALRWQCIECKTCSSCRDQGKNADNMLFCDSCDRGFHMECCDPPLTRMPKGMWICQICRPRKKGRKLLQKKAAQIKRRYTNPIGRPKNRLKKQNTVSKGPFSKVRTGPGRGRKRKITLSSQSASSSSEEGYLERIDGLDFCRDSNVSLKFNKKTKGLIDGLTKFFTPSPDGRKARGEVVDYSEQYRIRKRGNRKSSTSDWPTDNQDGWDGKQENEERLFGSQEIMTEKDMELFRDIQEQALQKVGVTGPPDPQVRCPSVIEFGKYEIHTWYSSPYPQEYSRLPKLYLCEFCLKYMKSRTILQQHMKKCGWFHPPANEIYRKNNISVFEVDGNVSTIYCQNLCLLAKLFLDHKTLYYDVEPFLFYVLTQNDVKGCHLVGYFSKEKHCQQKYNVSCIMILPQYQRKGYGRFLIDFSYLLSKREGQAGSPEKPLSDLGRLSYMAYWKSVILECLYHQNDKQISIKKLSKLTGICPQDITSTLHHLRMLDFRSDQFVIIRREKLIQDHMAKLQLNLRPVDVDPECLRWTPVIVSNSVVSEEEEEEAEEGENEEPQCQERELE
Test: Kat6a activity assay (TR-FRET, acetylation of Histone-H4-derived peptide)
Conditions: 60 mins at 22° C., 220 nM H4 peptide, 600 nM Acetyl Coenzyme A, read-out: KAT6A - DPF/HAT domain IC50 [mol/l] (arithmetic mean)
For each entry below, report its pIC50 value.
For clarity, pIC50 is expressed as the negative log10 of concentration in mol/L.

Fill in pIC50 for record CC(O)c1ccc(Cl)c(S(=O)(=O)NC(=O)c2cc3c(F)cc(N4CCC4)cc3o2)c1 (racemic) 6.86

Fill in pIC50 for record "CCCc1cccc(C(F)(F)F)c1S(=O)(=O)NC(=O)c1cc2c(F)cc(N3CCC3)cc2o1" 6.50

Fill in pIC50 for record "CC(C)Oc1ccccc1S(=O)(=O)NC(=O)c1cc2c(F)cc(N3CC(F)C3)cc2o1" 7.44

Fill in pIC50 for record "CCOCc1ccc(Cl)c(S(=O)(=O)NC(=O)c2cc3c(F)cc(N4CCC4)cc3o2)c1" 6.87

Fill in pIC50 for record "Cc1cnc(Cl)c(S(=O)(=O)NC(=O)c2cc3c(F)cc(N4CCC4)cc3o2)c1" 6.32

Fill in pIC50 for record "CCCOc1cccc(OCCC)c1S(=O)(=O)NC(=O)c1cc2c(F)cc(N3CCC3)cc2o1" 8.35

Fill in pIC50 for record "Cc1ccc(C(C)C)cc1S(=O)(=O)NC(=O)c1cc2c(F)cc(N3CCC3)cc2o1" 7.47

====

System: ESR1 transcription in MVLN cells
Test: MVLN reporter assay: repression of ESR1 transcription (luciferase signal)
Assay type: cell-based
Conditions: Homo sapiens, MVLN, 24 h, luciferase signal after 24 h, read-out: MVLN reporter assay, IC50 [M] (arithmetic mean)
property-measured: IC50 (M)
Could you give me the number in M? Just the number is fine.

Fill in IC50 for record "CC1(C)Cc2cccc(S(=O)(=O)NC(=O)c3cc4c(F)cc(N5CCC5)cc4o3)c2O1" 2.98e-07

Fill in IC50 for record "CCc1cccc(OCC2CC2)c1S(=O)(=O)NC(=O)c1cc2c(F)cc(N3CCC3)cc2o1" 5.37e-07

Fill in IC50 for record CCC(C)Oc1ccc(C)cc1S(=O)(=O)NC(=O)c1cc2c(F)cc(N3CCC3)cc2o1 (centres unmarked) 6.3e-08

Fill in IC50 for record "Cc1ccc(OC(C)C)c(S(=O)(=O)NC(=O)c2cc3c(F)cc(N4CC(F)C4)cc3o2)c1" 7.51e-08

Fill in IC50 for record "COC(=O)CCc1ccccc1S(=O)(=O)NC(=O)c1cc2c(F)cc(N3CCC3)cc2o1" 4.07e-06

Fill in IC50 for record "Cc1cc(Nc2ccccc2S(=O)(=O)NC(=O)c2cc3c(F)cc(N4CCC4)cc3o2)n(-c2ccccc2)n1" 1.58e-05

Fill in IC50 for record "O=C(NS(=O)(=O)c1cccc2c1CCCC2)c1cc2c(F)cc(N3CC(F)C3)cc2o1" 1.29e-07

====

For each entry below, report its log10 IC50 value.
Tested on: ESR1 transcription in MVLN cells
Test: MVLN reporter assay: repression of ESR1 transcription (luciferase signal)
Format: cell-based
Details: Homo sapiens, MVLN, 24 h, luciferase signal after 24 h, read-out: MVLN reporter assay, IC50 [M] (arithmetic mean)
Heads up: the numbers are on a log10 scale; they represent IC50 in M.

Fill in log10 IC50 for record CCOc1ccccc1S(=O)(=O)NC(=O)c1cc2c(F)cc(N3CCC3C)cc2o1 (racemic) -6.14

Fill in log10 IC50 for record CC1CCN1c1cc(F)c2cc(C(=O)NS(=O)(=O)c3ccccc3)oc2c1 (racemic) -5.21

Fill in log10 IC50 for record "O=C(NS(=O)(=O)c1cc(C(F)(F)F)cnc1Cl)c1cc2c(F)cc(N3CCC3)cc2o1" -4.99

Fill in log10 IC50 for record "COc1ccc(S(=O)(=O)NC(=O)c2cc3c(F)cc(N4CCC4)cc3o2)c2c1CCCC2" -6.20

Fill in log10 IC50 for record "O=C(NS(=O)(=O)c1c(F)cccc1C1CCC1)c1cc2c(F)cc(N3CCC3)cc2o1" -6.52

Fill in log10 IC50 for record "CCOc1cccc(S(=O)(=O)NC(=O)c2cc3c(F)cc(N4CCC4)cc3o2)c1" -5.56

====

For each entry below, report its IC50 value.
System: ESR1 transcription in MVLN cells
Assay: MVLN reporter assay: repression of ESR1 transcription (luciferase signal)
Type: cell-based
Details: Homo sapiens, MVLN, 24 h, luciferase signal after 24 h, read-out: MVLN reporter assay, IC50 [M] (arithmetic mean)
Could you give me the number in M? Just the number is fine.

Fill in IC50 for record CCOc1ccc(OC(F)(F)F)cc1S(=O)(=O)NC(=O)c1cc2c(F)cc(N3CCC3)cc2o1 [Example 212] 1.59e-07

Fill in IC50 for record CC(C)(C)c1ccc(OCC(F)(F)F)c(S(=O)(=O)NC(=O)c2cc3c(F)cc(N4CCC4)cc3o2)c1 [Example 227] 4.82e-08

Fill in IC50 for record COc1cc(C)ccc1S(=O)(=O)NC(=O)c1cc2c(F)cc(N3CCC3)cc2o1 [Example 156] 7.43e-08

Fill in IC50 for record CCOc1cccc(OCC(F)F)c1S(=O)(=O)NC(=O)c1cc2c(F)cc(N3CCC3)cc2o1 [Example 81] 1.57e-07

Fill in IC50 for record CC(Oc1ccccc1S(=O)(=O)NC(=O)c1cc2c(F)cc(N3CCC3)cc2o1)C(F)(F)F (single isomer, unassigned) [Example 14] 6.93e-08

Fill in IC50 for record CCCOc1cccc(OCCC)c1S(=O)(=O)NC(=O)c1cc2c(F)cc(N3CCC3)cc2o1 [Example 17] 1.76e-07

Fill in IC50 for record COc1ccc(N2CCCC2c2ccccc2)cc1S(=O)(=O)NC(=O)c1cc2c(F)cc(N3CCC3)cc2o1 (racemic) [Example 201] 6.48e-07

====

For each entry below, report its pIC50 value.
Biological target: Recombinant human His-tagged Kat6a protein (amino acids 194-810) (Homo sapiens, UniProt Q92794)
Construct: Kat6a protein (amino acids 194-810); His
Test: Kat6a activity assay (TR-FRET, acetylation of Histone-H4-derived peptide)
Conditions: 60 mins at 22° C., 220 nM H4 peptide, 600 nM Acetyl Coenzyme A, read-out: KAT6A - DPF/HAT domain IC50 [mol/l] (arithmetic mean)
For clarity, pIC50 is expressed as the negative log10 of concentration in mol/L.

Fill in pIC50 for record "N#CCCc1ccc(S(=O)(=O)NC(=O)c2cc3c(F)cc(N4CCC4)cc3o2)cc1" 6.19

Fill in pIC50 for record "CC(C)N(C)c1cc(F)c(S(=O)(=O)NC(=O)c2cc3c(F)cc(N4CC(F)C4)cc3o2)c(F)c1" 6.60

Fill in pIC50 for record "CCOc1c(F)cccc1S(=O)(=O)NC(=O)c1cc2c(F)cc(N3CCC3)cc2o1" 6.96

Fill in pIC50 for record "O=C(NS(=O)(=O)c1cccc2c1OC(F)(F)C(F)(F)O2)c1cc2c(F)cc(N3CCC3)cc2o1" 7.56

Fill in pIC50 for record "CC(C)Oc1ccc(C(C)(C)C)cc1S(=O)(=O)NC(=O)c1cc2c(F)cc(N3CCC3)cc2o1" 8.32

Fill in pIC50 for record "CN1CCc2c(cccc2S(=O)(=O)NC(=O)c2cc3c(F)cc(N4CC(F)C4)cc3o2)C1" 5.28

Fill in pIC50 for record "COc1ccc(C2=CCOCC2)cc1S(=O)(=O)NC(=O)c1cc2c(F)cc(N3CCC3)cc2o1" 8.08

Fill in pIC50 for record "CCOc1ccc(C(C)C)cc1S(=O)(=O)NC(=O)c1cc2c(F)cc(N3CC(F)C3)cc2o1" 8.24

Fill in pIC50 for record Cc1ccc2cccc(S(=O)(=O)NC(=O)c3cc4c(F)cc(N5CCC5C(F)F)cc4o3)c2n1 (racemic) 6.69

Fill in pIC50 for record "CC1(C)COc2ccc(S(=O)(=O)NC(=O)c3cc4c(F)cc(N5CCC5)cc4o3)cc21" 7.14

Fill in pIC50 for record "COc1ccc(-c2c(C)noc2C)cc1S(=O)(=O)NC(=O)c1cc2c(F)cc(N3CCC3)cc2o1" 8.38

Fill in pIC50 for record "C=C(C)c1ccc(OC)c(S(=O)(=O)NC(=O)c2cc3c(F)cc(N4CCC4)cc3o2)c1" 8.10

Fill in pIC50 for record "CN(C)c1ccc(Cl)c(S(=O)(=O)NC(=O)c2cc3c(F)cc(N4CCC4)cc3o2)c1" 4.85

Fill in pIC50 for record "CCOc1ccc(C)cc1S(=O)(=O)NC(=O)c1cc2c(F)cc(N3CCC3)cc2o1" 7.46

Fill in pIC50 for record "O=C(NS(=O)(=O)c1cccc2ccc(Cl)nc12)c1cc2c(F)cc(N3CC(F)C3)cc2o1" 7.87

Fill in pIC50 for record "O=C(NS(=O)(=O)c1ccccc1-c1ccccc1)c1cc2ccc(N3CCC3)cc2o1" 6.84
